Origin of the recorded values: patent US12473295B2

System: KO-52 cells
Assay: Proliferation assay (spheroid growth, 8 days), KO-52 control cell line
Assay type: cell-based, human
Conditions: read-out: spheroid assay_OneTime KO-52 IC50
metric: IC50

Worked cases, answers included:
>>> result("CNC(=O)CC[C@@H](C(C)C)N1CC2(CCN(c3ncnnc3Oc3ccc(F)cc3-c3cncnc3C3CC3)C2)C1 (single isomer, unassigned)")
"> 15 µM"
>>> result("CCN(C(=O)c1cc(F)ccc1Oc1nncnc1N1CCC2(C1)CN([C@H](CCO)C(C)C)C2)C(C)C (single isomer, unassigned)")
"> 15 µM"

Input CCN(C(=O)c1cc(F)ccc1Oc1nncnc1N1CCC2(C1)CN([C@H](CCCN(C)CCO)C(C)C)C2)C(C)C . Output IC50: 22.9 µM
